- experimentalSystem: recombinant human Meningioma Expressed Antigen 5 (MGEA5), also referred to as O-GlcNAcase (OGA) (Homo sapiens, UniProt O60502)
- Construct: Full length OGA enzyme was purchased at OnGene (cat #TP322411); purchased OnGene (so in the source)
- method: OGA biochemical assay: inhibition of hydrolysis of fluorescein mono-ß-D-N-Acetyl-Glucosamine (FM-GlcNAc), fluorescence readout
- assayConditions: FM-GlcNAc substrate, read-out: Enzymatic Emax (%)
parameterMeasured: Emax

* Cc1cc(Cl)cc(S(C)(=O)=O)c1Nc1nccc2c1ccn2CC1CC(F)(F)C1 | 101%
* Cc1ccnc(C)c1Nc1nccc2c1ccn2CCN1CC(F)(F)C1 | 99.7%
* CCC(C)(F)Cn1ccc2c(Nc3c(Cl)cc(F)cc3Cl)nccc21 (centres unmarked) | 102%
* CCCCn1ccc2c(Nc3c(C)cc(C(=O)N4CCOCC4)cc3C)nccc21 | 101%
* CCCCn1ccc2c(Nc3c(Cl)cccc3Cl)nccc21 | 101%

---

- experimentalSystem: recombinant human Meningioma Expressed Antigen 5 (MGEA5), also referred to as O-GlcNAcase (OGA) (Homo sapiens)
- Construct: Full length OGA enzyme was purchased at OnGene (cat #TP322411); purchased OnGene (so in the source)
- Sequence (O60502 1-916): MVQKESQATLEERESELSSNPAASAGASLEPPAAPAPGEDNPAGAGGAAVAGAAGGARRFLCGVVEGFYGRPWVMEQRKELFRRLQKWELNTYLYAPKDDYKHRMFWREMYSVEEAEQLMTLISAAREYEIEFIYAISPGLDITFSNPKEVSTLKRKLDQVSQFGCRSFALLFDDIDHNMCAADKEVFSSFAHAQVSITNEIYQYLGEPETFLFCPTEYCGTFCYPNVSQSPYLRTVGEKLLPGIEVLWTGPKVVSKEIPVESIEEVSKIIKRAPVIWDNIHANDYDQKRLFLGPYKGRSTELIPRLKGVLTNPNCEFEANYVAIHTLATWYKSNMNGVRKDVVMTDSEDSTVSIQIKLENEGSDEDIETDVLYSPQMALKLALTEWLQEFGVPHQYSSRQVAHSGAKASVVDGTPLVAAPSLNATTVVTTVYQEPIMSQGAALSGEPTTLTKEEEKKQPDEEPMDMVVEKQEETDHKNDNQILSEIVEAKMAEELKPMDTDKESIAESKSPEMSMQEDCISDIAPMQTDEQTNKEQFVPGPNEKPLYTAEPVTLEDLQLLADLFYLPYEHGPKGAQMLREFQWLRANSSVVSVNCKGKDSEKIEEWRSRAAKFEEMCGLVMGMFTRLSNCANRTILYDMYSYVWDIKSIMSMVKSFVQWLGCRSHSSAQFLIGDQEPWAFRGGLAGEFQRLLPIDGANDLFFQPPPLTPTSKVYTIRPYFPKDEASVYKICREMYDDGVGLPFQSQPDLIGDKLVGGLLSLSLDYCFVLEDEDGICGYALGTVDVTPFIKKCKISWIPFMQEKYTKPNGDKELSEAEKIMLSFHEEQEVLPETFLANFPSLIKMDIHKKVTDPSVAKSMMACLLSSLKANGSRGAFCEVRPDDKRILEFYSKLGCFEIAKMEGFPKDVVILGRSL
- method: OGA biochemical assay: inhibition of hydrolysis of fluorescein mono-ß-D-N-Acetyl-Glucosamine (FM-GlcNAc), fluorescence readout
- assayConditions: FM-GlcNAc substrate
parameterMeasured: Enzymatic hOGA; pIC50

- FCCCCn1ccc2c(Nc3c(Cl)cccc3Cl)nccc21: 7.98
- FC1(F)CC(Cn2ccc3c(Nc4c(Cl)cccc4Cl)nccc32)C1: 8
- CC[C@H](O)Cn1ccc2c(Nc3c(C)cc(C#N)cc3Cl)nccc21 [Compound 123b]: 7.53
- Cc1ccnc(C)c1Nc1nccc2c1ccn2CCC(F)F: 7.1
- Cn1cnc(Cn2ccc3c(Nc4c(Cl)cc(F)cc4Cl)nccc32)c1: 6.77

---

- experimentalSystem: recombinant human Meningioma Expressed Antigen 5 (MGEA5), also referred to as O-GlcNAcase (OGA) (Homo sapiens, UniProt O60502)
- Construct: Full length OGA enzyme was purchased at OnGene (cat #TP322411); purchased OnGene (so in the source)
- method: OGA biochemical assay: inhibition of hydrolysis of fluorescein mono-ß-D-N-Acetyl-Glucosamine (FM-GlcNAc), fluorescence readout
- assayConditions: FM-GlcNAc substrate
parameterMeasured: Enzymatic hOGA; pIC50

* Cc1ccnc(C(F)F)c1Nc1nccc2c1ccn2CC1CC(F)(F)C1 | 7.2
* Cc1ccnc(C)c1Nc1nccc2c1ccn2CC1CC(F)(F)C1 | 7.38
* CCC(C)(F)Cn1ccc2c(Nc3c(Cl)cc(F)cc3Cl)nccc21 (centres unmarked) | 7.62
* Cc1cc(C(F)(F)F)cc(C)c1Nc1nccc2c1ccn2CC(C)(F)F | 8.6
* Cc1cnc(Cn2ccc3c(Nc4c(Cl)cc(F)cc4Cl)nccc32)o1 | 7.41
* Cc1cc(-c2cnn(C)c2)cc(C)c1Nc1nccc2c1ccn2CC(C)(F)F | 8.67
* CCCCn1ccc2c(Nc3c(Cl)ccc4c3CCO4)nccc21 | 8.11
* Cc1ccnc(C)c1Nc1nccc2c1ccn2CC1CCOC1 (centres unmarked) | 7.08
* Cc1cc(C(F)(F)F)cc(C)c1Nc1nccc2c1ccn2CC1CC(F)(F)C1 | 7.89
* FC(F)CCn1ccc2c(Nc3c(Cl)cccc3Cl)nccc21 | 7.9
* Cc1ccnc(C(C)C)c1Nc1nccc2c1ccn2CC1CC(F)(F)C1 | 8.26
* CC[C@H](O)Cn1ccc2c(Nc3c(C)cc(C(F)(F)F)cc3C)nccc21 [Compound 124b] | 8.04
* Cc1cc(C)c(Nc2nccc3c2ccn3CC(C)(F)F)c(OC(F)F)n1 | 8.07
* Cc1ccnc(OC(F)F)c1Nc1nccc2c1ccn2CC1CC(F)(F)C1 | 7.03
* Cc1cc(F)cc(C)c1Nc1nccc2c1ccn2CC(C)(F)F | 8.67
* Clc1cccc(Cl)c1Nc1nccc2c1ccn2CCC1COC1 [Compound 98] | 6.54
* CCCCn1ccc2c(Nc3c(C)ccc4cccnc34)nccc21 | 7.18
* Cc1ccnc(C(F)F)c1Nc1nccc2c1ccn2CC(C)(F)F | 8.28
* CCCCn1ccc2c(Nc3c(C)cnc4c3OCCO4)nccc21 | 7.4
* Cc1ccnc(C)c1Nc1nccc2c1ccn2CCN1CC(F)(F)C1 | 6.12
* CCC(F)(F)Cn1ccc2c(Nc3c(C)ccnc3C(C)C)nccc21 | 8.88
* Cc1cc(F)cc(Cl)c1Nc1nccc2c1ccn2CC(C)(F)F | 8.61
* CCCCn1ccc2c(Nc3c(Cl)ccc4c3ccn4C)nccc21 | 8.54
* Cc1ccnc(C)c1Nc1nccc2c1ccn2CC1(C)COC1 | 6.54
* FC1(F)CC1CCn1ccc2c(Nc3c(Cl)cccc3Cl)nccc21 (centres unmarked) | 7.61
* CCCCn1ccc2c(Nc3c(C)ccc(C(=O)N4CCOCC4)c3C)nccc21 | 8.49
* CCC(Cn1ccc2c(Nc3c(Cl)cc(F)cc3Cl)nccc21)OC (centres unmarked) | 6.14
* Clc1cccc(Cl)c1Nc1nccc2c1ccn2CC1CCO1 (centres unmarked) | 8.87
* Cc1cc(F)cc(C(C)C)c1Nc1nccc2c1ccn2CC1CCO1 (centres unmarked) | 8.63
* CCC(C)(F)Cn1ccc2c(Nc3c(C)ccnc3C)nccc21 (centres unmarked) | 7.32
* Clc1cccc(Cl)c1Nc1nccc2c1ccn2CCC1COC1 [Compound 122] | 7.72
* Cc1cc(OC(F)F)nc(C)c1Nc1nccc2c1ccn2CC(C)(F)F | 8.58
* Fc1cc(Cl)c(Nc2nccc3c2ccn3CC2CCOC2)c(Cl)c1 (centres unmarked) | 7.8
* Cc1cc(F)cc(F)c1Nc1nccc2c1ccn2CC(C)(F)F | 8
* Fc1cc(Cl)c(Nc2nccc3c2ccn3Cc2cocn2)c(Cl)c1 | 7.25
* Cc1ccnc(OC(F)F)c1Nc1nccc2c1ccn2CC1CCO1 (centres unmarked) | 8
* CC[C@@H](O)Cn1ccc2c(Nc3c(C)cc(C(F)(F)F)cc3C)nccc21 [Compound 124a] | 7.88
* Cc1ccnc(OC(F)F)c1Nc1nccc2c1ccn2CC(C)(F)F | 7.94

---

This section presents molecules with their documented log10 IC50 values.
- experimentalSystem: recombinant human Meningioma Expressed Antigen 5 (MGEA5), also referred to as O-GlcNAcase (OGA) (Homo sapiens, UniProt O60502)
- Construct: Full length OGA enzyme was purchased at OnGene (cat #TP322411); purchased OnGene (so in the source)
- method: OGA biochemical assay: inhibition of hydrolysis of fluorescein mono-ß-D-N-Acetyl-Glucosamine (FM-GlcNAc), fluorescence readout
- assayConditions: FM-GlcNAc substrate, read-out: Enzymatic hOGA, pIC50 (converted)
parameterMeasured: log10 IC50 (log10 of the value in µM)

• CC(C)(C#N)Cn1ccc2c(Nc3c(Cl)cc(F)cc3Cl)nccc21 = -0.04
• CCCCn1ccc2c(Nc3c(Cl)ccc4c3OCCO4)nccc21 = -1.95
• Cc1cc2c(c(C)c1Nc1nccc3c1ccn3CC1CC(F)(F)C1)OCCO2 = -2.20
• CN(C)S(=O)(=O)Cn1ccc2c(Nc3c(Cl)cncc3Cl)nccc21 = -0.03
• CCCCn1ccc2c(Nc3c(C)cc(NC(C)=O)cc3C)nccc21 = -2.27
